// endpoint MIC / system C. jejuni Au-13
// return the numeric value with its unit appended

Guide cases for MIC, answers given:
CSc1ccccc1-c1nnc(NC(=O)Cc2ccccc2)o1    0.31 µg/mL
CCN(CC)/C(C)=N/C(=O)Nc1ccccc1    0.06 µg/mL
CC(C)n1c(S)nc2c1c(=O)[nH]c(=O)n2C    1.25 µg/mL
CCc1ccnc(NS(=O)(=O)c2ccc(C)c(Cl)c2)c1    0.62 µg/mL
CC(C)(C)NC(=S)NNc1c(Cl)cncc1Cl    0.31 µg/mL
CCCNC(=S)Nc1cc(OC)cc(OC)c1    1.25 µg/mL

Lookup: Reported MIC for "CCOC(=O)C1CCN(CC(=O)Nc2cccc3cccnc23)CC1" : what is it?
Found: 0.62 µg/mL

Lookup: Returns the measured MIC for the input compound. Input: "CN(C)c1ccc(C(=O)Nc2ccc(CN3CCS(=O)(=O)CC3)cc2)cc1"
Found: 6.25 µg/mL

* * *

test system: C. jejuni 81–176; assay: Copper sulfate sensitivity dose–response assay in vitro (MIC/MBC); assay type: cell-based, Campylobacter jejuni; settings: Campylobacter jejuni; 0.5 mM CuSO4, head displaced; read-out: MBC, C. jejuni (Table S5)
Quantity name: MBC (µg/mL)
Use µg/mL as the unit, but write only the number.

Examples with answers:
CC(C)n1c(S)nc2c1c(=O)[nH]c(=O)n2C    2.5
CCOC(=O)C1CCN(CC(=O)Nc2cccc3cccnc23)CC1    0.04
CCN(CC)/C(C)=N/C(=O)Nc1ccccc1    0.12
CCCNC(=S)Nc1cc(OC)cc(OC)c1    0.62
CC(C)(C)NC(=S)NNc1c(Cl)cncc1Cl    0.62

Field: next compound
Lookup: State its MBC on C. jejuni 81–176: "CSc1ccccc1-c1nnc(NC(=O)Cc2ccccc2)o1"
Found: 0.16

* * *

tested on: C. jejuni Au-47
Quantity name: MIC (µg/mL)
Write down the numeric answer in µg/mL and omit the unit.

Please review the following examples before continuing.
CC(C)(C)NC(=S)NNc1c(Cl)cncc1Cl [T2]    0.31
CCN(CC)/C(C)=N/C(=O)Nc1ccccc1 [T8]    0.06
CN(C)c1ccc(C(=O)Nc2ccc(CN3CCS(=O)(=O)CC3)cc2)cc1 [T3]    6.25
CC(C)n1c(S)nc2c1c(=O)[nH]c(=O)n2C [T6]    1.25
CCOC(=O)C1CCN(CC(=O)Nc2cccc3cccnc23)CC1 [T5]    2.5

Lookup: // query MIC value for entry CCc1ccnc(NS(=O)(=O)c2ccc(C)c(Cl)c2)c1 [T4]
Found: 0.62

Lookup: Request the reported MIC associated with CSc1ccccc1-c1nnc(NC(=O)Cc2ccccc2)o1 [T7]
Found: 0.31

Lookup: Param item = CCCNC(=S)Nc1cc(OC)cc(OC)c1 [T1] ; retrieve measured MIC.
Found: 0.16

* * *

System: intracellular C. jejuni 81–176 in Caco-2 cells
Test: Copper sulfate sensitivity dose–response assay in infected Caco-2 colon epithelial cells
Type: cell-based, Campylobacter jejuni
Conditions: infected Caco-2 cells, 24 h, 0.5 mM CuSO4
Procedure: The intracellular reduction in C. jejuni in the presence of a given SM (T1-T8) and 0.5 mM CuSO4 were evaluated using Caco-2 cells, as previously described ([Kumar et al., 2016]; [Deblais et al., 2019]). In brief, cells were infected for 2 h using a multiplicity of infection (MOI) of 100. Infected cells were treated with SM at a final concentration ranging between 5 and 0.315 μg/mL and incubated at 37°C for 24 h in a humidified 5% CO2 incubator. […]
Quantity name: C. jejuni 81–176 MBC in Caco2 cells

Lookup: What value of C. jejuni 81–176 MBC in Caco2 cells on intracellular C. jejuni 81–176 in Caco-2 cells does CCN(CC)/C(C)=N/C(=O)Nc1ccccc1 [T8] have?
Found: 5 µg/mL

Lookup: Provide the documented C. jejuni 81–176 MBC in Caco2 cells with intracellular C. jejuni 81–176 in Caco-2 cells as the system for CN(C)c1ccc(C(=O)Nc2ccc(CN3CCS(=O)(=O)CC3)cc2)cc1 [T3]
Found: 5 µg/mL

Lookup: // map CC(C)(C)NC(=S)NNc1c(Cl)cncc1Cl [T2] to recorded C. jejuni 81–176 MBC in Caco2 cells (system: intracellular C. jejuni 81–176 in Caco-2 cells)
Found: 1.25 µg/mL

Lookup: Please state recorded C. jejuni 81–176 MBC in Caco2 cells (tested on intracellular C. jejuni 81–176 in Caco-2 cells) of CSc1ccccc1-c1nnc(NC(=O)Cc2ccccc2)o1 [T7]
Found: 2.5 µg/mL

Lookup: Request body: readout C. jejuni 81–176 MBC in Caco2 cells, system intracellular C. jejuni 81–176 in Caco-2 cells, query CCCNC(=S)Nc1cc(OC)cc(OC)c1 [T1] . Return the value.
Found: 0.63 µg/mL

* * *

system: C. jejuni Au-50; experiment: Copper sulfate sensitivity dose–response assay in vitro (MIC/MBC); format: cell-based; settings: Campylobacter jejuni, AU50; 0.5 mM CuSO4; read-out: MBC, Au-50 (Table S5)
The entries below are paired with their reported MBC.
Give the value in µg/mL but do not write µg/mL after it.

CC(C)(C)NC(=S)NNc1c(Cl)cncc1Cl [T2]    0.62
CC(C)n1c(S)nc2c1c(=O)[nH]c(=O)n2C [T6]    2.5
CCCNC(=S)Nc1cc(OC)cc(OC)c1 [T1]    0.62
CCN(CC)/C(C)=N/C(=O)Nc1ccccc1 [T8]    0.5

Please turn your attention to the following entry.
Lookup: Any idea what MBC was measured for CSc1ccccc1-c1nnc(NC(=O)Cc2ccccc2)o1 [T7] ?
Found: 0.32

* * *

system: C. jejuni Au-38; experiment: Copper sulfate sensitivity dose–response assay in vitro (MIC/MBC); format: cell-based; conditions: Campylobacter jejuni, AU38; 0.5 mM CuSO4; read-out: MBC, Au-38 (Table S5)
Attribute: MBC
Give just the numeric value; µg/mL need not be written.

CCOC(=O)C1CCN(CC(=O)Nc2cccc3cccnc23)CC1    5
CC(C)(C)NC(=S)NNc1c(Cl)cncc1Cl    1.24

Lookup: Fill blank: measured MBC of the compound "CCCNC(=S)Nc1cc(OC)cc(OC)c1" is ____.
Found: 0.62

Lookup: Quick check: MBC of "CSc1ccccc1-c1nnc(NC(=O)Cc2ccccc2)o1" ?
Found: 0.32

Lookup: Quick one: MBC of "CCN(CC)/C(C)=N/C(=O)Nc1ccccc1" ?
Found: 0.06

Lookup: Which measured MBC value corresponds to "CC(C)n1c(S)nc2c1c(=O)[nH]c(=O)n2C" ?
Found: 2.5

* * *

test system: C. jejuni Au-47; assay: Copper sulfate sensitivity dose–response assay in vitro (MIC/MBC); assay type: cell-based; conditions: Campylobacter jejuni, AU47; 0.5 mM CuSO4; read-out: MBC, Au-47 (Table S5)
Could you mark each record TRUE if its MBC falls strictly under 0.6 µg/mL, and FALSE if it equals or exceeds it?

Lookup: State whether 0.6 µg/mL exceeds MBC recorded for "CCc1ccnc(NS(=O)(=O)c2ccc(C)c(Cl)c2)c1" .
Found: FALSE

Lookup: Determine whether this compound shows MBC lower than 0.6 µg/mL (ties excluded): "CCN(CC)/C(C)=N/C(=O)Nc1ccccc1"
Found: TRUE

Lookup: Confirm or reject: MBC of "CSc1ccccc1-c1nnc(NC(=O)Cc2ccccc2)o1" lies strictly below 0.6 µg/mL
Found: FALSE

Lookup: Dear reviewer, please state whether "CC(C)n1c(S)nc2c1c(=O)[nH]c(=O)n2C" has MBC strictly beneath 0.6 µg/mL.
Found: FALSE

Lookup: MBC under 0.6 µg/mL? Item: "CN(C)c1ccc(C(=O)Nc2ccc(CN3CCS(=O)(=O)CC3)cc2)cc1"
Found: FALSE

Lookup: # TODO verify MBC < 0.6 µg/mL strictly for this compound: "CCOC(=O)C1CCN(CC(=O)Nc2cccc3cccnc23)CC1"
Found: FALSE

Lookup: Does "CCCNC(=S)Nc1cc(OC)cc(OC)c1" have MBC strictly under 0.6 µg/mL?
Found: TRUE

Lookup: Consider "CC(C)(C)NC(=S)NNc1c(Cl)cncc1Cl" . Does its MBC lie strictly below 0.6 µg/mL?
Found: FALSE

* * *

test system: C. jejuni Au-39
Listed below: MIC values for each entry.
Give the value, in units of µg/mL, as a plain number.

CCN(CC)/C(C)=N/C(=O)Nc1ccccc1    0.25
CCCNC(=S)Nc1cc(OC)cc(OC)c1    0.31
CCOC(=O)C1CCN(CC(=O)Nc2cccc3cccnc23)CC1    5
CCc1ccnc(NS(=O)(=O)c2ccc(C)c(Cl)c2)c1    6.25
CSc1ccccc1-c1nnc(NC(=O)Cc2ccccc2)o1    0.31

Lookup: Quick check: MIC on C. jejuni Au-39, item "CN(C)c1ccc(C(=O)Nc2ccc(CN3CCS(=O)(=O)CC3)cc2)cc1" ?
Found: 6.25

Lookup: Please provide the recorded MIC for "CC(C)(C)NC(=S)NNc1c(Cl)cncc1Cl" , tested on C. jejuni Au-39.
Found: 0.31

Lookup: Form field - read-out: MIC; system: C. jejuni Au-39; submitted item: "CC(C)n1c(S)nc2c1c(=O)[nH]c(=O)n2C"
Found: 1.25
